All values here come from patent US20250154283A1.

Kd: recorded values
# test.system: T1, biotinylated human VWF cysteine knot (CK) domain construct (human, UniProt P04275 2724-2813, biotinylated in vitro (BirA) on the biotinylation tag; one N-glycan)
# T1 construct: Expressed in HEK293 EBNA cells; disulfide-linked homodimer; also called human VWF CK; human VWF CK domain; not shown: in vitro biotinylation tag, HRV-3C site and 3 VWF residues before the CK domain
# protocol.details: SPR, scFv captured via anti-SV5, CK domain injected, pH 7.4, apparent Kd;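 further: scFvs from crude yeast supernatants printed on an amine-coupled anti-SV5 lawn, Kd computed as koff over kon, likely overestimating affinity because the CK construct is dimeric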
Form entry: value (nM) — number only.

See these solved cases before continuing.
binder: 9301_Lib8_scFv (scFv, VH-linker-VL; not shown: C-terminal 3xFLAG and SV5 tags) scFv: EVQLVESGGGLVQPGRSLRLSCAASGFNFHNYDMHWVRQAPGKGLEWVSAISGSGYTADYADSVEGRFTISRDNAKNSLYLQMNSLRAEDTAVYYCAKSHSSGWSSAFDIWGQGTMVTVSSSGGSTITSYNVYYTKLSSSGTDIQMTQSPSSLSASVGDRVTITCRASQTIGYWLAWYQQKPGKAPKLLIYDASVPESGVPSRFSGSGSGTDFTLTISSLQPEDVATYYCQQTLSSPWTFGGGTKVEIK
Kd, nM: 0.167
--
binder: 189_Lib4_scFv (scFv, VH-linker-VL; not shown: C-terminal 3xFLAG and SV5 tags) scFv: QVQLQESGPGLVKPSQTLSLTCTVSGVTFSSYGWSWIRQPPGKGLEWIGYVDTSGSTDYNPSLKSRVTMSVDTSKNQFSLKVNSVTAADTAVYYCARTTYYYDSSGFARGWFDPWGQGTLVTVSSSGGSTITSYNVYYTKLSSSGTEIVMTQSPATLSLSPGERATLSCRASQSVPSSHLAWYQQKPGQAPRLLIYDATNRAAGIPARFSGSGSGTDFTLTISSLEPEDFAVYYCQQYDNWPSPSFGGGTKVEIK
Kd, nM: 1.37
--
binder: Lib6_P3_A1_scFv (scFv, VH-linker-VL; not shown: C-terminal 3xFLAG and SV5 tags) scFv: QVQLVQSGAEVKKPGASVKVSCKVSGDTLSNYAIHWVRQAPGKGLEWMGGINPNAGTTIYAQKFQGRVTMTEDTSTDTAYMELSSLKSEDTAVYYCARDSSSWCPVGYYYYYMDVWGKGTTVTVSSSGGSTITSYNVYYTKLSSSGTDIQMTQSPSSVSASVGDRVTITCRASQSIGDFLAWYQQKPGKAPKLLIYDASHLQTGVPSRFSGSGSGTDFTLTISSLQPEDFANYYCQQTSTIPPTFGGGTKVEIK
Kd, nM: 1.41
--
binder: Lib1_P1_G3_scFv (scFv, VH-linker-VL; not shown: C-terminal 3xFLAG and SV5 tags) scFv: QVQLVQSGAEVKKPGASVKVSCKVSGYTSRQYIHWVRQAPGKGLEWMGWVTPIFGTTNYAQKFQGRVTMTEDTSTDTAYMELSSLKSEDTAVYYCAREWTGTTAFDIWGQGTLVTVSSSGGSTITSYNVYYTKLSSSGTDIQMTQSPSSVSASVGDRVTITCRASQDIGHYLAWYQQKPGKAPKLLIYAASNRASGVPSRFSGSGSGTDFTLTISSLQPEDFANYYCQQGYSAPYGFGGGTKVEIK
Kd, nM: 0.073
--
binder: 9621_Lib8_scFv (scFv, VH-linker-VL; not shown: C-terminal 3xFLAG and SV5 tags) scFv: EVQLVESGGGLVQPGRSLRLSCAASGFSFSMYAMHWVRQAPGKGLEWVSAISPSGDATDYADSVEGRFTISRDNAKNSLYLQMNSLRAEDTAVYYCARGMQDYGHYYYYYMDVWGKGTTVTVSSSGGSTITSYNVYYTKLSSSGTDIQMTQSPSSLSASVGDRVTITCRASQDISTSLAWYQQKPGKAPKLLIYGASSLETGVPSRFSGSGSGTDFTLTISSLQPEDVATYYCQQGYIAPRTFGGGTKVEIK
Kd, nM: 0.217

# lookup: Kd of Lib4_P2_D1_scFv (scFv, VH-linker-VL; not shown: C-terminal 3xFLAG and SV5 tags) scFv: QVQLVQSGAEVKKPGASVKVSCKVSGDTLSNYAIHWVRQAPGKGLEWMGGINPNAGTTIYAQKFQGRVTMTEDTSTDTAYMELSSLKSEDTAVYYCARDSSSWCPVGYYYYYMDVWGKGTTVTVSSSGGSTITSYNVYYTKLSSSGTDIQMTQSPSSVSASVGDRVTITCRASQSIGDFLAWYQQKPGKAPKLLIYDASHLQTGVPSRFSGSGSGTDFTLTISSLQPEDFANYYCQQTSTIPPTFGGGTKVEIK
5.02

Any idea what its Kd is? The binder is Lib1_P1_D1_scFv (scFv, VH-linker-VL; not shown: C-terminal 3xFLAG and SV5 tags) scFv: QVQLVQSGAEVKKPGASVKVSCKVSGDTFTDRYIHWVRQAPGKGLEWMGGINTIFGTAIYAQKFQGRVTMTEDTSTDTAYMELSSLKSEDTAVYYCAREGATVSTNFDYWGQGTLVTVSSSGGSTITSYNVYYTKLSSSGTDIQMTQSPSSVSASVGDRVTITCRASQDIRKSLAWYQQKPGKAPKLLIYDISNRPSGVPSRFSGSGSGTDFTLTISSLQPEDFANYYCQQGYSAPYGFGGGTKVEIK
0.589

Which Kd is listed for Lib4_P2_A2_scFv (scFv, VH-linker-VL; not shown: C-terminal 3xFLAG and SV5 tags) scFv: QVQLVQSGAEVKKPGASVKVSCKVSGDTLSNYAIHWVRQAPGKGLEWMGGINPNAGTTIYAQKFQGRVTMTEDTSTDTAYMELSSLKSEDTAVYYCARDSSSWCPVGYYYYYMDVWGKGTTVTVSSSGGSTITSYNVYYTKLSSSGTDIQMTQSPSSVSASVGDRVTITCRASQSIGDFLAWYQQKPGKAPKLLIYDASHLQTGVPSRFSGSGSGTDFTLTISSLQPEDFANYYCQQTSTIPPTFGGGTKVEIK ?
2.05

If you can, please state the reported Kd value of 7046_Lib8_scFv (scFv, VH-linker-VL; not shown: C-terminal 3xFLAG and SV5 tags) scFv: EVQLVESGGGLVQPGRSLRLSCAASGFNFHNYDMHWVRQAPGKGLEWVSAISGSGYTADYADSVEGRFTISRDNAKNSLYLQMNSLRAEDTAVYYCAKSHSSGWSSAFDIWGQGTMVTVSSSGGSTITSYNVYYTKLSSSGTDIQMTQSPSSLSASVGDRVTITCRASQTIGYWLAWYQQKPGKAPKLLIYDATNLATGVPSRFSGSGSGTDFTLTISSLQPEDVATYYCQHYNPYSQVTFGGGTKVEIK .
0.088
